Listed here are molecules together with their documented cytotoxicity at 70.5 h.
Experiment description: Human HepG2 cell viability assay in 384 well format
Assay type: toxicity, cell-based
Set-up: dose 125 nL, time 70.5 hour; concentration not given beside the values
Applied conditions: HepG2 cells, read-out: Inhibition
The reply should contain only the number, in %.

[[record]]
molecule = "CC(C)CN1C[C@H]2CCN(Cc3cccnc3)CC[C@H]2S1(=O)=O"
attribute_measured = "cytotoxicity at 70.5 h"
units_text = "%"
assay_value = -10.9

[[record]]
molecule = "Cn1ccnc1CN1CCN(CC(O)c2ccc(F)c(F)c2)CC1 (stereo unspecified)"
attribute_measured = "cytotoxicity at 70.5 h"
units_text = "%"
assay_value = 13.5

[[record]]
molecule = "CCNc1cc2c(nn1)CCN(C(=O)c1ccc3c(c1)OCO3)C2"
attribute_measured = "cytotoxicity at 70.5 h"
units_text = "%"
assay_value = -4.42

[[record]]
molecule = "N#Cc1ccc(CS(=O)(=O)NC(=O)c2ccc(C#N)cc2)cc1"
attribute_measured = "cytotoxicity at 70.5 h"
units_text = "%"
assay_value = -14.8

[[record]]
molecule = "Cc1ccc(S(=O)(=O)NCc2cnn(C)c2)c(F)c1"
attribute_measured = "cytotoxicity at 70.5 h"
units_text = "%"
assay_value = -3.12

[[record]]
molecule = "COc1ccccc1CNC(=O)C(C)N1CC(n2nc(C)cc2C)C1 (stereo unspecified)"
attribute_measured = "cytotoxicity at 70.5 h"
units_text = "%"
assay_value = -1.72

[[record]]
molecule = "CCNC(=O)N1CC[C@@H](CC(=O)O)[C@@H](CC2=NCCc3ccccc32)C1"
attribute_measured = "cytotoxicity at 70.5 h"
units_text = "%"
assay_value = -2.71

[[record]]
molecule = "CC(C)N(C)C(=O)C1=NOC2(CCN(C(=O)c3ccccn3)C2)C1 (stereo unspecified)"
attribute_measured = "cytotoxicity at 70.5 h"
units_text = "%"
assay_value = -9.35

[[record]]
molecule = "NC(=O)C(Nc1ccc(Cl)cc1)c1ccc(F)cc1 (stereo unspecified)"
attribute_measured = "cytotoxicity at 70.5 h"
units_text = "%"
assay_value = -0.513

[[record]]
molecule = "CC(Cc1ccco1)NC(=O)Nc1ccc(N2CCOCC2)nc1 (stereo unspecified)"
attribute_measured = "cytotoxicity at 70.5 h"
units_text = "%"
assay_value = -4.87


// query cytotoxicity at 70.5 h value for entry Cc1cc(F)ccc1CCNC(=O)NCC(C)N1CCOCC1 (stereo unspecified) 3.68

Repeat for the following molecule: `CCn1cnnc1C1CCN(C(=O)Cc2ccc(OC)c(F)c2)CC1` -7.22
